- Tested on: CCRF-CEM leukemia
- ASSAY_SUMMARY: NCI tumour cell line growth inhibition, 48 h
Where a SMILES comes first, the peptide text is derived from it. The star is where a group is joined. Cbz = O=C(OCc1ccccc1)*; NHNH2 = NN*
OBSERVED_PROPERTY: TGI

Worked cases, answers included:
COMPOUND | TGI
O=C1C=CC(=O)c2c(O)c(NCCc3ccc(O)cc3)c(Cl)c(O)c21 | > 10 µM
COc1ccc(/C(COc2c(-c3ccccc3)oc3ccccc3c2=O)=N\O)cc1 | > 50 µM
CN1CCN(C(=O)OCc2nc3c(N4CCOCC4)nc(Cl)nc3n2C)CC1 | 1.78 µM

COC(=O)CC(NC(=O)OCc1ccccc1)C(=O)NC(CC(=O)OC)C(=O)NC(CC(=O)OC)C(=O)NC(CC(=O)OC)C(=O)NC(CC(=O)OC)C(=O)NC(CC(=O)OC)C(=O)NN (stereo not drawn) (Cbz-D(OMe)D(OMe)D(OMe)D(OMe)D(OMe)D(OMe)-NHNH2; configuration not given here) on CCRF-CEM leukemia gives TGI = > 100 µM

Log: CCRF-CEM leukemia, compound Oc1c(CN2CCC(N3CCCCC3)CC2)cc(Cc2cc(CN3CCC(N4CCCCC4)CC3)c(O)c3ncccc23)c2cccnc12 , TGI = 3.51 µM

Observed TGI on CCRF-CEM leukemia, entry O=C1c2cc(Cl)ccc2S(=O)(=O)c2c(NCCCNCCO)nc3ccccc3c21 , equals 2.74 µM

----------
- Tested on: OVCAR-5 ovarian
- ASSAY_SUMMARY: NCI tumour cell line growth inhibition, 48 h
TGI overview

Before answering, review these 5 worked examples.
COMPOUND | OBSERVED_PROPERTY | OBSERVED_RESULT
COc1ccc(-c2cc(=O)c3ccc(O)cc3o2)cc1OC | TGI | > 100 µM
NC(=O)c1ccc(I)c(N)c1 | TGI | > 100 µM
CCOn1c(C2(CC3CCN(C(=O)c4ccccc4)CC3)OCCO2)cc2ccccc21 | TGI | 37.4 µM
CC[C@@H]1CN(C)[C@H]2Cc3c([nH]c4ccccc34)C(=O)C[C@H]1C2C(=O)OC (stereo not given in full) | TGI | > 100 µM
O=C(Nc1ccccc1C(=O)NCCCO)/C(=C/c1ccccc1O)NC(=O)c1ccccc1 | TGI | > 100 µM

Noted for FC(F)(F)c1cccc(Nc2nccc(-c3cnn4nc(-c5ccccc5)ccc34)n2)c1 : its TGI reads > 25 µM

In plain terms, COC(=O)C1=Nc2c(C)nn(-c3ccccc3)c2N=C(c2ccc([N+](=O)[O-])cc2)C1 has a documented TGI of > 10 µM

TGI in this record for CC(C)C(=O)NC(=S)Nc1ccc([N+](=O)[O-])cc1C#N : > 100 µM

The reported value for Cc1ccc(NC(=O)c2cccc(N(C)C)c2)cc1NC(=O)c1ccc(O)cc1 in terms of TGI is > 100 µM

Notebook: C=CCOCCCCC(C(C)=O)C(=O)OC (stereo not given) , TGI read as > 100 µM

Noted for CN1CCN(C(=O)OCc2nc3c(N4CCOCC4)nc(Cl)nc3n2C)CC1 : its TGI reads 3.54 µM

----------
Collected TGI values appear next to each entry.
- Tested on: OVCAR-3 ovarian
- ASSAY_SUMMARY: NCI tumour cell line growth inhibition, 48 h

Recorded TGI, per entry:
SMILES_REPR | TGI
COc1ccc(-c2cc(=O)c3ccc(O)cc3o2)cc1OC | > 100 µM
Cn1c2ccccc2n2c(=O)c3cc([N+](=O)[O-])ccc3c(C#N)c12 | > 100 µM

We next turn to a different compound, shown below.
Response field TGI (OVCAR-3 ovarian) for item COc1cc(CN2CCCCC2)cc2cc(C(=O)O)c(=O)oc12 : > 100 µM

----------
- Tested on: KM12 colon
- ASSAY_SUMMARY: NCI tumour cell line growth inhibition, 48 h
Where a SMILES comes first, the peptide text is derived from it. The star is where a group is joined. Cbz = O=C(OCc1ccccc1)*; NHNH2 = NN*
OBSERVED_PROPERTY: TGI

The compound listed as O=C(Cc1ccc([N+](=O)[O-])cc1)OCC#CCOC(=O)Cc1ccc([N+](=O)[O-])cc1 has a reported TGI of > 10 µM

The value of TGI measured for the compound Nc1c(C(=O)c2ccc(Cl)cc2)[nH]c(NCc2ccccc2)c1C(=S)Nc1ccccc1 turned out to be 3.24 µM

Note to self: TGI recorded for COC(=O)CC(NC(=O)OCc1ccccc1)C(=O)NC(CC(=O)OC)C(=O)NC(CC(=O)OC)C(=O)NC(CC(=O)OC)C(=O)NC(CC(=O)OC)C(=O)NC(CC(=O)OC)C(=O)NN (centres undefined) (Cbz-D(OMe)D(OMe)D(OMe)D(OMe)D(OMe)D(OMe)-NHNH2; configuration not given here) was > 100 µM

Consider CCC[CH2][Sn]([CH2]CCC)([O]C(=O)c1cccnc1SC)[O]C(=O)c1cccnc1SC . Its measured TGI is 3.08 µM

----------
- Tested on: NCI-H460 lung
- ASSAY_SUMMARY: NCI tumour cell line growth inhibition, 48 h
OBSERVED_PROPERTY: TGI

Worked cases, answers included:
COMPOUND | TGI
CN(C)CCn1c(=O)c2ccc(NCCCN(C)CCCNc3ccc4c(=O)n(CCN(C)C)c(=O)n5c6ccc([N+](=O)[O-])cc6c(=O)c3c45)c3c(=O)c4cc([N+](=O)[O-])ccc4n(c1=O)c23 | 0.12 µM
CCNC(=O)C1CCCN1C(=O)C(CCCN=C(N)N)NC(=O)C(CC(C)C)NC(=O)C(Cc1c[nH]c2ccccc12)NC(=O)C(Cc1ccc(O)cc1)NC(=O)C(CO)NC(=O)C(Cc1c[nH]c2ccccc12)NC(=O)C(Cc1cnc[nH]1)NC(=O)C1CCC(=O)N1 (centres undefined) | > 100 µM
CC1(C)OC2[C@@H](CNC(=O)NC(=O)NC(=O)CI)O[C@@H](n3cnc4c(NC(=O)Nc5ccccc5)ncnc43)[C@H]2O1 (some centres undefined) | > 50 µM

Now consider the entry below.
Item: CSc1nc2c(c(=O)n1C)N=C(c1ccccc1)[C@H](C(CC(=O)c1ccccc1)c1ccccc1)C(c1ccccc1)N2 (some centres undefined) | TGI: > 100 µM

----------
- Tested on: UO-31 renal
- ASSAY_SUMMARY: NCI tumour cell line growth inhibition, 48 h
The entries below come with measured TGI values attached.

MOLECULE | TGI
C=CC(=O)N1CC2(CCN(c3nc(OC4CCN(CCCOC)CC4)nc4c(OCC(F)(F)F)c(-c5c(C)ccc6[nH]ncc56)c(C5CC5)cc34)CC2)C1 | 3.13 µM

With those in mind, consider the next molecule.
Form field TGI, entry O=[N+]([O-])c1ccc(-c2ccc(-c3csc(Nc4ccccn4)n3)o2)cc1 : > 100 µM

----------
- System: XF 498 CNS
- ASSAY_SUMMARY: NCI tumour cell line growth inhibition, 48 h
OBSERVED_PROPERTY: TGI

Known TGI results, listed for orientation:
COMPOUND | TGI
COC(=O)/C=C/c1cc(OC)c(OC)c(OC)c1 | > 100 µM
Brc1cccc(C=NC23CC4CC(CC(C4)C2)C3)c1 | > 100 µM

Proceed to the following item.
response.value for O=C(O)C(CO)NC(=O)n1c2ccccc2c2ccccc21 (stereo not drawn) (field: TGI) = > 100 µM

----------
Entries annotated with measured TGI
- System: SF-268 CNS
- ASSAY_SUMMARY: NCI tumour cell line growth inhibition, 48 h

SMILES_REPR | OBSERVED_RESULT
NC(=O)C(=CNC(=S)c1ccncc1)C(N)=O | > 100 µM
COc1ccc(-c2cc(=O)c3c(OC)c(OC)c(OC)cc3o2)cc1 | > 100 µM

The reported TGI of the compound Cc1nc(C)c(Cc2ccccc2)o1 was > 100 µM

----------
Here the recorded TGI is given for each entry.
- Tested on: HCT-116 colon
- ASSAY_SUMMARY: NCI tumour cell line growth inhibition, 48 h

Worked examples follow.
COMPOUND | SYSTEM_NAME | OBSERVED_RESULT
c1ccc(/C(=N/Nc2ccccn2)c2ncccn2)cc1 | HCT-116 colon | > 100 µM
COC(=O)C1=Nc2c(C)nn(-c3ccccc3)c2N=C(c2ccc([N+](=O)[O-])cc2)C1 | HCT-116 colon | > 10 µM
C[C@]12CC[C@H]3[C@@H](CC=C4C[C@@H](O)CC[C@@]43C)[C@@H]1CC[C@@H]2N(CCO)CCO | HCT-116 colon | > 100 µM
CSc1nc2c(c(=O)n1C)N=C(c1ccccc1)[C@H](C(CC(=O)c1ccccc1)c1ccccc1)C(c1ccccc1)N2 (stereo partly specified) | HCT-116 colon | > 100 µM

Sure, the documented TGI for O=C1O[C@@H](c2ccc3c(c2)OCO3)C2C(=O)O[C@@H](c3ccc4c(c3)OCO4)C12 (stereo partly specified) is > 100 µM

Short answer for OC1(c2ccc(Cl)cc2)c2ccc3ccccc3c2C2=N[C@H]3CCCC[C@@H]3N21 (stereo partly specified) : TGI was 20.5 µM

Source listed as PubChem BioAssay (NCI).
